Tested on: K-562 leukemia
Assay: NCI tumour cell line growth inhibition, 48 h
Listed compounds paired with reported GI50

Consider the following illustrative entries.
>>> val("C=C1CCC2C3(C)COC(c4c(OC)cccc4OC)OC3CCC2(C)C1C/C=C1/C(=O)OCC1O (centres undefined)")
"1410 nM"
>>> val("CCCCCCC/C=C/[C@H]1O[C@]2(O)C(=O)C=C3C[C@@H](O[C@@H]4O[C@H](CO)[C@@H](O)C(O)[C@@H]4O)C[C@@H]3[C@H]2C=C1C (some centres undefined)")
"1040 nM"
>>> val("C[N+](C)(CCCCCC[N+](C)(C)CCCN1C(=O)c2cc3ccccc3cc2C1=O)CCCN1C(=O)c2cc3ccccc3cc2C1=O")
"> 37500 nM"

Now let's try a different one.
Task item: For K-562 leukemia, provide GI50 of "CCN(Cc1ccccc1Cl)c1ccc(CO)c(Cl)c1" please.
Reply: 1630 nM

---

Listed compounds paired with reported GI50
System: HCC-2998 colon
Assay: NCI tumour cell line growth inhibition, 48 h

Task item: For HCC-2998 colon, provide GI50 of "CCCCCCCCCCCCCCCC(=O)N[C@H](/C=C/[C@H](O)CCCCCCCCCCCCC)CO" please.
Reply: > 100 µM

Task item: For HCC-2998 colon, provide GI50 of "N.N.O=P([O-])([O-])CN(CCN(CP(=O)([O-])[O-])CP(=O)([O-])[O-])CP(=O)([O-])[O-].[Pt+2]" please.
Reply: > 100 µM

Task item: For HCC-2998 colon, provide GI50 of "CCCCCCCCCCC/C=C\C[C@H](O)C/C=C1/C(=O)C=C[C@@H]1C/C=C\CCCC(=O)OC" please.
Reply: 1.24 µM

Task item: For HCC-2998 colon, provide GI50 of CC1=C(C(=O)Nc2ccc3[nH]ncc3c2)C(c2ccc(Cl)c(Cl)c2)CC(=O)N1 (stereo not drawn) please.
Reply: > 25 µM

Task item: For HCC-2998 colon, provide GI50 of "Fc1ccc(-c2nn3c(-c4cc(C(F)(F)F)cc(C(F)(F)F)c4)nnc3s2)cc1" please.
Reply: > 50 µM

Task item: For HCC-2998 colon, provide GI50 of "COc1cc2nc(-c3ccc(Cl)cc3)cc(OCCCN3CCCC3)c2cc1OC" please.
Reply: 1.86 µM

Task item: For HCC-2998 colon, provide GI50 of "CCOC(=O)c1ccc2c(c1)nc(/C=C/c1ccc(Cl)cc1)n2-c1cc(C(C)(C)C)[nH]n1" please.
Reply: > 100 µM

Task item: For HCC-2998 colon, provide GI50 of "C[N+](C)(CCCCCC[N+](C)(C)CCCN1C(=O)c2cc3ccccc3cc2C1=O)CCCN1C(=O)c2cc3ccccc3cc2C1=O" please.
Reply: > 37.5 µM

---

Listed compounds paired with reported TGI
Test system: SF-539 CNS
Assay: NCI tumour cell line growth inhibition, 48 h
Give just the numeric value; µM need not be written.

>>> val("CCOC(=O)c1ccc2c(c1)nc(/C=C/c1ccc(Cl)cc1)n2-c1cc(C(C)(C)C)[nH]n1")
5.09
>>> val("CNc1cc2nc3cc(NC)c(C)cc3cc2cc1C")
16.2
>>> val("Cc1cc(C)n2c(-c3ccccc3)c(C)cc2n1")
73.4
>>> val("C[n+]1c2ccccc2n2c3ccccc3c(NCCc3ccccn3)c(C#N)c21")
12.6
>>> val("NCCCCCCCCCCCn1c2c(c3ccccc3c1=O)C(=O)c1ccccc1-2")
40.2

Now let's try a different one.
Task item: For SF-539 CNS, provide TGI of "COc1cc2oc(-c3ccc(O)cc3O)c(CC=C(C)C)c(=O)c2c(O)c1/C=C/C(C)C" please.
Reply: 10.4

---

Tested on: T-47D breast
Assay: NCI tumour cell line growth inhibition, 48 h; in the data active means GI50 below about 0.43 µM; inactive means the rest
Response enum: yes (1) (active), no (0) (inactive)

>>> label("COc1cccc(-n2cc(-c3nc(Nc4cc(C)[nH]n4)c4ccccc4n3)nn2)c1")
"no (0)"

Task item: For "CN(C)CCC=C1c2ccccc2C(C)(C)c2ccccc21" , what call appears in the results of this test?
Reply: no (0)

Task item: For "CCN(Cc1ccccc1Cl)c1ccc(CO)c(Cl)c1" , what call appears in the results of this test?
Reply: yes (1)

Task item: For "NCCCCCCCCCCCn1c2c(c3ccccc3c1=O)C(=O)c1ccccc1-2" , what call appears in the results of this test?
Reply: no (0)

---

Measurement record for OVCAR-8 ovarian; quantity recorded: GI50.

Consider the following illustrative entries.
>>> val("COC(=O)C[CH2][Ge]([CH3])([CH3])[S]c1ccccc1")
"25.2 µM"
>>> val("N.N.O=P([O-])([O-])CN(CCN(CP(=O)([O-])[O-])CP(=O)([O-])[O-])CP(=O)([O-])[O-].[Pt+2]")
"> 100 µM"
>>> val("c1ccc(Nc2nc(-c3ccccn3)cs2)nc1")
"0.395 µM"
>>> val("Clc1cc2c(nn1)Nc1ccccc1S2")
"> 100 µM"

Now let's try a different one.
Task item: For OVCAR-8 ovarian, provide GI50 of "CO[C@]12C=C/C(=C(/C(=O)OCc3cccnc3)C(=O)CCCCCCCC[C@@]3(OC)C=C/C(=C(/C(=O)OCc4cccnc4)C(=O)CCCCCCCC1)O3)O2" please.
Reply: 0.959 µM

---

System: HT29 colon
Experiment: NCI tumour cell line growth inhibition, 48 h
Listed compounds paired with reported TGI

Consider the following illustrative entries.
>>> val("S=C(N/N=C/c1ccccn1)Nc1ccc(Cl)cc1")
"> 100 µM"
>>> val("Cc1cc(S(=O)(=O)NC2=NC(c3ccccc3)c3cc(Cl)ccc3N2)c(S)cc1Cl (stereo not given)")
"> 100 µM"
>>> val("C1COCCOCCOCCOCCOCCO1.[Cl][Sn]([Cl])([c]1ccccc1)[c]1ccccc1")
"18.9 µM"

Task item: For HT29 colon, provide TGI of "O=[N+]1ON=C(c2ccccc2)C1=C1C(c2c(-c3ccccc3)no[n+]2[O-])=NON1[O-]" please.
Reply: 24.8 µM

Task item: For HT29 colon, provide TGI of "CN(C)CCC(CCN(C)C)=NOC(=O)c1ccccc1" please.
Reply: > 100 µM

Task item: For HT29 colon, provide TGI of "O=C(N/C(=C\c1ccc(/C=C(\NC(=O)c2ccccc2)c2nc3cc(Cl)ccc3[nH]2)cc1)c1nc2cc(Cl)ccc2[nH]1)c1ccccc1" please.
Reply: > 100 µM

Task item: For HT29 colon, provide TGI of "C[N+](C)(CCCCCC[N+](C)(C)CCCN1C(=O)c2cc3ccccc3cc2C1=O)CCCN1C(=O)c2cc3ccccc3cc2C1=O" please.
Reply: > 37.5 µM

Task item: For HT29 colon, provide TGI of NC1CCC(Nc2nc(NCc3cc(Cl)ccc3O)c3ncn(C4CCCC4)c3n2)CC1 (stereo not given) please.
Reply: 0.755 µM

Task item: For HT29 colon, provide TGI of CCOC(=O)C(=[N+]=[N-])C(=O)CN1C(=O)C2CC(C)=C(C)CC2C1O (stereo not given) please.
Reply: > 100 µM

Task item: For HT29 colon, provide TGI of "C[C@]12CCC[C@H](O)[C@H]1C[C@H](CO)CC2" please.
Reply: > 100 µM

---

Tested on: COLO 205 colon
Assay: NCI tumour cell line growth inhibition, 48 h
value.type: TGI

>>> val("CCOC(=O)NC(C(=O)OCC)(N1CCN(c2cc3c(cc2F)c(=O)c(C(=O)O)cn3CC)CC1)C(F)(F)F (stereo not given)")
"> 100 µM"
>>> val("c1ccc(-c2nnc(SCc3c[nH]c4ccccc34)n2-c2ccccc2)cc1")
"> 100 µM"
>>> val("COC(=O)[C@@]1(Cc2ccc(O)cc2)C[C@@H]2Cc3ccccc3N2N1")
"> 100 µM"
>>> val("COc1ccc(-c2nnc3n(Cc4ccccc4)c4ccccc4n3c2=O)cc1")
"> 100 µM"
>>> val("C[C@]12CCC[C@H](O)[C@H]1C[C@H](CO)CC2")
"> 100 µM"
>>> val("CC(=O)OC1CC2(C)OC(Cc3ccccc32)O1 (stereo not given)")
"> 100 µM"

Task item: Report TGI for "CC(C)=CCC1=C(OCC(=O)O)C(=O)c2ccccc2C1=O" please.
Reply: > 100 µM

Task item: Report TGI for "c1cc2nnc1SCCCSc1ccc(nn1)SCCCSc1ccc(nn1)SCCCS2" please.
Reply: > 100 µM

Task item: Report TGI for "C1COCCOCCOCCOCCOCCO1.[Cl][Sn]([Cl])([c]1ccccc1)[c]1ccccc1" please.
Reply: 4.34 µM

Task item: Report TGI for CC1SC2(CCC(c3ccccc3)CC2)N(NC(=O)c2[nH]c3ccc(F)cc3c2-c2ccccc2)C1=O (stereo not given) please.
Reply: 10.5 µM

Origin of values: PubChem BioAssay (NCI)
